Molecular target: CCR5 receptor (Homo sapiens, UniProt P51681)
Sequence (P51681 whole entry): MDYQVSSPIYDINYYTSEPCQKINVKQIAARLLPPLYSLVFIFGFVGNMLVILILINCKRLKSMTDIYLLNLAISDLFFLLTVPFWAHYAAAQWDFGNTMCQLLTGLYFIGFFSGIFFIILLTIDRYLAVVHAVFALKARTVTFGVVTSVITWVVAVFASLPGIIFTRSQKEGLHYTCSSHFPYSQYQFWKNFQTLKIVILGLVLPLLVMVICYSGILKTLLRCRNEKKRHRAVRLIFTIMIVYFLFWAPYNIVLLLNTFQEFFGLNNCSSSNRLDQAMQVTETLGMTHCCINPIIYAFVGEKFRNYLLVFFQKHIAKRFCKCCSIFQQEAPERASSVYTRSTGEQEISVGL
Test: Calcium flux aequorin-based assay (agonist response)
Settings: Chinese hamster ovary cells expressing the CCR5 receptor, apoaequorin and Gα16; read-out: Aequorin/Ca++ assay EC50
Listed next: entries and their corresponding EC50.
reportedMetric: EC50 (nM)

In [3]: df
Out[3]:
                                  molsmiles  readoutunit  endpointvalue
0  O=C(CC1CCN(CCN(c2ccccc2)c2ccccc2)CC1)Nc1ccc(F)cc1           nM            703
1  O=C(CC1CCN(CCN(c2ccccc2)c2ccccc2)CC1)NCc1ccc(Cl)cc1           nM           4410
2  COc1ccc(CNC(=O)CC2CCN(CCN(c3ccccc3)c3ccccc3)CC2)cc1           nM            764
3  COc1ccc(NC(=O)CC2CCN(CC[C@H](NC(=O)C3CCC(F)(F)CC3)c3ccccc3)CC2)cc1           nM           36.4
4  Cc1ccc(NC(=O)CC2CCN(CCN(c3ccccc3)c3ccccc3)CC2)cc1           nM            425
5  C[C@H](CN(c1ccccc1)S(=O)(=O)Cc1ccccc1)N1CCC(CC(=O)Nc2ccc(F)cc2F)CC1           nM           60.5

* * *

Tested on: recombinant and non-replicative HIV virus coding for the firefly luciferase
Test: Inhibitory effect on HIV infection to MAGI-CCR5 cells (HIV-luciferase assay)
Format: cell-based
Settings: Human immunodeficiency virus 1, MAGI-CCR5, read-out: HIV-luciferase assay IC50
Description: The inhibitory activity of the compounds of the invention on HIV infection is measured on the human MAGI R5 recombinant cell line coexpressing the human CCR5 receptor and CD4 at their extracellular membrane. MAGI R5 cells are plated in black view plates at 10,000 cells/well and incubated with the appropriate concentrations of the compounds of the invention during 1 hour. […]
pIC50: −log10 of the molar value.
reportedMetric: pIC50

>>> df
                                  molsmiles  endpointvalue
0  O=C(CC1CCN(CCN(c2ccccc2)c2ccccc2)CC1)NCc1ccccc1           5.79
1  COc1ccc(NC(=O)CC2CCN([C@H](C)CN(c3ccccc3)S(=O)(=O)Cc3ccccc3)CC2)cc1           8.41
2  O=C(CC1CCN(CCN(c2ccccc2)c2ccccc2)CC1)Nc1ccc(Cl)cc1           5.69
3  COc1ccc(NC(=O)CC2CCN(CC[C@H](NC(=O)C3CCC(F)(F)CC3)c3ccccc3)CC2)cc1           8.57

* * *

Molecular target: UniProtKB P51681
Experiment: Calcium flux aequorin-based assay (agonist response)
Conditions: Chinese hamster ovary cells expressing the CCR5 receptor, apoaequorin and Gα16; read-out: Aequorin/Ca++ assay EC50
pEC50: −log10 of the molar value.
Listed next: entries and their corresponding pEC50.
reportedMetric: pEC50

                                  molsmiles    measuredtarget  endpointvalue
0  O=C(CC1CCN(CCN(c2ccccc2)c2ccccc2)CC1)Nc1ccc(Cl)cc1  UniProtKB P51681           5.75
1  O=C(CC1CCN(CCN(c2ccccc2)c2ccccc2)CC1)NC1CCCCC1  UniProtKB P51681           6.36
2  COc1ccc(NC(=O)CC2CCN([C@H](C)CN(c3ccccc3)S(=O)(=O)Cc3ccccc3)CC2)cc1  UniProtKB P51681           7.15
3  CCCCc1ccc(NC(=O)CC2CCN(CCN(c3ccccc3)c3ccccc3)CC2)cc1  UniProtKB P51681           5.63

* * *

Molecular target: CCR5 receptor (Homo sapiens, UniProt P51681)
Test: 125I-MIP-1β binding competition assay
Design: expressed in transfected cells; host or cells: Chinese hamster ovary recombinant cells (membranes)
Conditions: membranes of CHO cells expressing human CCR5; 0.05 nM 125I-MIP-1β; read-out: 125I-MIP-1β binding assay IC50
Strictly below 0.1 µM in IC50: MET. Otherwise: NOT MET.

>>> df
                                   compound                            measuredtarget  classlabel
0  C[C@H](CN(c1ccccc1)S(=O)(=O)Cc1ccccc1)N1CCC(CC(=O)Nc2ccc(F)cc2F)CC1 [Compound 98]  CCR5 receptor (Homo sapiens, UniProt P51681)         MET
1  COc1ccc(CNC(=O)CC2CCN(CCN(c3ccccc3)c3ccccc3)CC2)cc1 [Compound 16]  CCR5 receptor (Homo sapiens, UniProt P51681)     NOT MET
2  Cc1ccc(NC(=O)CC2CCN(CCN(c3ccccc3)c3ccccc3)CC2)cc1 [Compound 8]  CCR5 receptor (Homo sapiens, UniProt P51681)         MET
3  CCCCc1ccc(NC(=O)CC2CCN(CCN(c3ccccc3)c3ccccc3)CC2)cc1 [Compound 27]  CCR5 receptor (Homo sapiens, UniProt P51681)     NOT MET
4  O=C(CC1CCN(CCN(c2ccccc2)c2ccccc2)CC1)NCc1ccccc1 [Compound 50]  CCR5 receptor (Homo sapiens, UniProt P51681)     NOT MET
5  O=C(CC1CCN(CCN(c2ccccc2)c2ccccc2)CC1)NCc1ccc(Cl)cc1 [Compound 15]  CCR5 receptor (Homo sapiens, UniProt P51681)     NOT MET
6  COc1ccc(NC(=O)CC2CCN([C@H](C)CN(c3ccccc3)S(=O)(=O)Cc3ccccc3)CC2)cc1 [Compound 96]  CCR5 receptor (Homo sapiens, UniProt P51681)         MET
7  O=C(CC1CCN(CCN(c2ccccc2)c2ccccc2)CC1)Nc1ccc(Cl)cc1 [Compound 6]  CCR5 receptor (Homo sapiens, UniProt P51681)     NOT MET
8  O=C(CC1CCN(CCN(c2ccccc2)c2ccccc2)CC1)NC1CCCCC1 [Compound 17]  CCR5 receptor (Homo sapiens, UniProt P51681)     NOT MET
9  O=C(CC1CCN(CCN(c2ccccc2)c2ccccc2)CC1)Nc1ccc(F)cc1 [Compound 4]  CCR5 receptor (Homo sapiens, UniProt P51681)         MET
